biological target: Human LDHA (Homo sapiens (Human)); test: human LDHA primary biochemical assay (resazurin/diaphorase coupled, fluorescence); conditions: LDHA inhibitory activity, assay of Example 1; activity level classes
pIC50: −log10 of the molar value.
Measured metric: pIC50

INSERT INTO results (smiles_record, study_system, endpoint_value) VALUES
  ('NS(=O)(=O)c1ccc(Cc2c(-c3ccc(F)c(F)c3)nn(-c3nc(C(=O)O)cs3)c2I)cc1', 'Human LDHA (Homo sapiens (Human))', '> 7.00'),
  ('COC(=O)c1csc(-n2nc(-c3ccccc3)c(Cc3ccc(S(N)(=O)=O)cc3)c2Cc2nnn[nH]2)n1', 'Human LDHA (Homo sapiens (Human))', '< 4.24'),
  ('O=C(O)c1csc(-n2nc(-c3ccc(F)c(F)c3)c3cccc(O)c32)n1', 'Human LDHA (Homo sapiens (Human))', '< 4.24'),
  ('CS(=O)(=O)c1ccc(Cc2cn(-c3nc(C(=O)O)cs3)nc2-c2ccccc2)cc1', 'Human LDHA (Homo sapiens (Human))', '< 4.24'),
  ('CCOC(=O)c1csc(-n2nc(C3CC3)c(Oc3ccc(S(N)(=O)=O)cc3)c2-c2ccccc2)n1', 'Human LDHA (Homo sapiens (Human))', '< 4.24'),
  ('Cc1ccc(-c2cccc(-c3nn(-c4nc(C(=O)O)cs4)c(CC4CC4)c3Cc3ccc(S(N)(=O)=O)cc3)c2)cc1', 'Human LDHA (Homo sapiens (Human))', '> 7.00'),
  ('Nc1c(Cc2ccc(S(N)(=O)=O)cc2)c(-c2ccccc2)nn1-c1ccc(C(=O)O)nn1', 'Human LDHA (Homo sapiens (Human))', '< 4.24'),
  ('CCOC(=O)c1csc(-n2nc(-c3cccc(-c4ccccc4)c3)c(Cc3ccc(S(N)(=O)=O)cc3)c2C2(C(F)(F)F)CC2)n1', 'Human LDHA (Homo sapiens (Human))', '< 4.24'),
  ('N[S+](=O)([O-])c1ccc(Cc2c(-c3ccc(F)c(-c4ccc(F)cc4)c3)nn(-c3nc(C(=O)O)cs3)c2CC2CC2)cc1', 'Human LDHA (Homo sapiens (Human))', '> 7.00'),
  ('CC(C)(C)OC(=O)c1csc(-n2nc(-c3ccc(F)c(F)c3)c(Cc3cccc(S(N)(=O)=O)c3)c2O)n1', 'Human LDHA (Homo sapiens (Human))', '< 4.24'),
  ('NS(=O)(=O)c1ccc(Cc2c(-c3ccc(F)c(-c4cccc(F)c4)c3)nn(-c3nc(C(=O)O)cs3)c2C2CC2)c(F)c1', 'Human LDHA (Homo sapiens (Human))', '> 7.00'),
  ('NS(=O)(=O)c1ccc(CNc2cn(-c3nc(C(=O)O)cs3)nc2-c2ccccc2)cc1', 'Human LDHA (Homo sapiens (Human))', '< 4.24'),
  ('N[S+](=O)([O-])c1ccc(Cc2c(-c3cccc(-c4ccc(F)cc4)c3)nn(-c3nc(C(=O)O)cs3)c2C(F)(F)F)cc1', 'Human LDHA (Homo sapiens (Human))', '> 7.00'),
  ('O=C(OCCN1CCOCC1)c1csc(-n2nc(-c3ccc(F)c(F)c3)cc2O)n1', 'Human LDHA (Homo sapiens (Human))', '< 4.24');
